Value source: patent US10106515B2

assay_system: recombinant human CXCR2 (Homo sapiens)
Construct: TEV protease site; Gal4-VP16 transcription factor
Sequence (P25025 whole entry, the tested form may be a part): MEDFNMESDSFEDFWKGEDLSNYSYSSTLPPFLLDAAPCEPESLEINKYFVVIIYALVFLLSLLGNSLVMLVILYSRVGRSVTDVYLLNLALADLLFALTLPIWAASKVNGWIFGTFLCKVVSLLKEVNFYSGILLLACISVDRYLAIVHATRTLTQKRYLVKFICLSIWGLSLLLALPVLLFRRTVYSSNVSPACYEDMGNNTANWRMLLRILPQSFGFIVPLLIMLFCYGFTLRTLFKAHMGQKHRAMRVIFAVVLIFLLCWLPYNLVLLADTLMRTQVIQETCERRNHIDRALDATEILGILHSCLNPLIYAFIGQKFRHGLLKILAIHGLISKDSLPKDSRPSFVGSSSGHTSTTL
method_summary: CXCR2 Tango assay
Type: cell-based
particulars: mean pIC50 of multiple test results; stimulated with 80 nM hCXCL1; reporter gene blue/green emission ratio; read-out: pIC50 (CXCR2 Tango assay) (converted)
Structures can show the parent of a compound that is named as a salt.

{"columns": ["compound", "assay_system", "IC50"],
 "data": [
  ["CO[C@H]1C[C@@H](S(=O)(=O)c2c(Cl)ccc(NC(=O)NC3CCC=C3C)c2O)C1 (stereo partly drawn) [Compound 148]", "recombinant human CXCR2 (Homo sapiens)", "≤ 10 nM"],
  ["COCC(C)S(=O)(=O)c1c(Cl)ccc(NC(=O)N[C@@H]2CCC=C2C)c1O (stereo partly drawn) [Compound 158]", "recombinant human CXCR2 (Homo sapiens)", "≤ 10 nM"],
  ["COC1CCCCC1S(=O)(=O)c1c(Cl)ccc(NC(=O)NC2CCC=C2C)c1O (racemic) [Compound 150]", "recombinant human CXCR2 (Homo sapiens)", "≤ 10 nM"],
  ["CC1=CCC[C@H]1NC(=O)Nc1ccc(C#N)c(S(=O)(=O)C(C)(C)C(F)(F)F)c1O [Compound 31]", "recombinant human CXCR2 (Homo sapiens)", "≤ 1 nM"],
  ["CO[C@H]1C[C@@H](S(=O)(=O)c2c(Cl)ccc(NC(=O)NC3C=CCC3)c2O)C1 (stereo partly drawn) [Compound 147]", "recombinant human CXCR2 (Homo sapiens)", "≤ 10 nM"],
  ["COCCN1CCN(S(=O)(=O)c2c(Cl)ccc(NC(=O)NC3CCC=C3C)c2O)CC1 (stereo not drawn) [Compound 161]", "recombinant human CXCR2 (Homo sapiens)", "≤ 10 nM"],
  ["CCO[C@H]1C[C@@H](S(=O)(=O)c2c(Cl)ccc(NC(=O)N[C@@H]3CCC=C3C)c2O)C1 [Compound 124]", "recombinant human CXCR2 (Homo sapiens)", "≤ 1 nM"],
  ["CC1=CCCC1NC(=O)Nc1ccc(Cl)c(S(=O)(=O)N2CC[C@@H](F)C2)c1O (stereo partly drawn) [Compound 113]", "recombinant human CXCR2 (Homo sapiens)", "≤ 10 nM"],
  ["CCO[C@H]1C[C@@H](S(=O)(=O)c2c(Cl)ccc(NC(=O)N[C@@H]3CCC=C3Cl)c2O)C1 [Compound 125]", "recombinant human CXCR2 (Homo sapiens)", "≤ 10 nM"],
  ["CC1=CCC[C@H]1NC(=O)Nc1ccc(Cl)c(S(=O)(=O)[C@]2(C)CCOC2)c1O [Compound 196]", "recombinant human CXCR2 (Homo sapiens)", "≤ 10 nM"],
  ["CC1=CCCC1NC(=O)Nc1ccc(Cl)c(S(=O)(=O)C(C)c2ccccn2)c1O (stereo not drawn) [Compound 25, trifluoroacetic acid salt]", "recombinant human CXCR2 (Homo sapiens)", "≤ 10 nM"],
  ["CC1=CCC[C@H]1NC(=O)Nc1ccc(Cl)c(S(=O)(=O)C(C)CO)c1O (stereo partly drawn) [Compound 34]", "recombinant human CXCR2 (Homo sapiens)", "≤ 10 nM"],
  ["O=C(O)C(F)(F)F.[2H]C1(S(=O)(=O)c2c(Cl)ccc(NC(=O)N[C@@H]3CCC=C3Cl)c2O)CCN(C2CCC2)CC1 [Compound 169]", "recombinant human CXCR2 (Homo sapiens)", "≤ 1 nM"],
  ["C[C@@]1(S(=O)(=O)c2c(Cl)ccc(NC(=O)N[C@@H]3CCC=C3Cl)c2O)CCOC1 (single isomer, unassigned) [Compound 198]", "recombinant human CXCR2 (Homo sapiens)", "≤ 10 nM"],
  ["CC(C)(C1COC1)S(=O)(=O)c1c(Cl)ccc(NC(=O)N[C@@H]2CCC=C2Cl)c1O [Compound 5]", "recombinant human CXCR2 (Homo sapiens)", "≤ 10 nM"],
  ["CC1=CCCC1NC(=O)Nc1ccc(Cl)c(S(=O)(=O)[C@H]2CC[C@H](N3CCCC3)CC2)c1O (stereo partly drawn) [Compound 98, trifluoroacetic acid salt]", "recombinant human CXCR2 (Homo sapiens)", "≤ 1 nM"],
  ["CO[C@@H]1COCC[C@@H]1S(=O)(=O)c1c(Cl)ccc(NC(=O)N[C@@H]2CCC=C2C)c1O [Compound 145]", "recombinant human CXCR2 (Homo sapiens)", "≤ 10 nM"],
  ["CC1=CCCC1NC(=O)Nc1ccc(Cl)c(S(=O)(=O)N2CC(F)(F)C2)c1O (stereo not drawn) [Compound 111]", "recombinant human CXCR2 (Homo sapiens)", "≤ 10 nM"],
  ["CC1=CCCC1NC(=O)Nc1ccc(Cl)c(S(=O)(=O)C(C)(C)c2ccccn2)c1O (stereo not drawn) [Compound 102, trifluoroacetic acid salt]", "recombinant human CXCR2 (Homo sapiens)", "≤ 10 nM"],
  ["COC1CCN(S(=O)(=O)c2c(Cl)ccc(NC(=O)NC3CCC=C3C)c2O)CC1 (stereo not drawn) [Compound 154]", "recombinant human CXCR2 (Homo sapiens)", "≤ 10 nM"],
  ["CC1(S(=O)(=O)c2c(Cl)ccc(NC(=O)N[C@@H]3CCC=C3Cl)c2O)CCOCC1 [Compound 40]", "recombinant human CXCR2 (Homo sapiens)", "≤ 10 nM"]
]}
